In this section we review reported MIC values for a set of compounds.
test system: Sporothrix schenckii; assay: Antifungal activity against Sporothrix schenckii after 16 hrs by microtiter broth dilution method; assay type: functional

Lab book: MIC of `CCCc1cc(/C=C/C(=O)c2ccco2)cc(/C=N/c2nc(C(=O)OCC)cs2)c1O` noted as > 102 µM

Lab book: MIC of `CCOC(=O)c1csc(/N=C/c2cc(/C=C/C(=O)c3ccc(C)cc3)cc(C(C)C)c2O)n1` noted as > 108 µM

Lab book: MIC of CCn1cc(C(=O)O)c(=O)c2cc(F)c(N3CCNCC3)cc21 [NORFLOXACIN] noted as 33.6 µM

Lab book: MIC of `COc1ccc(C(=O)/C=C/c2cc(/C=N/c3nc(-c4ccc(OC)c(OC)c4)cs3)c(O)c(C(C)(C)C)c2)cc1` noted as > 89.8 µM

* * *

tested on: Escherichia coli; assay: Antibacterial activity against Escherichia coli ATCC 9637 after 16 hrs by microtiter broth dilution method; format: functional; details: W
property: MIC

Worked cases, answers included:
{"compound": "CN[C@H](CC(C)C)C(=O)N[C@H]1C(=O)N[C@@H](CC(N)=O)C(=O)N[C@H]2C(=O)N[C@H]3C(=O)N[C@H](C(=O)N[C@H](C(=O)O)c4cc(O)cc(O)c4-c4cc3ccc4O)[C@H](O)c3ccc(c(Cl)c3)Oc3cc2cc(c3O[C@@H]2O[C@H](CO)[C@@H](O)[C@H](O)[C@H]2O[C@H]2C[C@](C)(N)[C@H](O)[C@H](C)O2)Oc2ccc(cc2Cl)[C@H]1O [VANCOMYCIN]", "measured.target": "Escherichia coli", "MIC": "> 157 µM"}
{"compound": "CCOC(=O)c1csc(/N=C/c2cc(/C=C/C(=O)c3ccc(OC)cc3)cc(C(C)(C)C)c2O)n1", "measured.target": "Escherichia coli", "MIC": "> 102 µM"}

Lab book: MIC of `COc1ccc(C(=O)/C=C/c2cc(/C=N/c3nc(-c4ccc(OC)c(OC)c4)cs3)c(O)c(C(C)(C)C)c2)cc1` noted as > 89.8 µM

* * *

test system: Klebsiella pneumoniae; assay: Antibacterial activity against Klebsiella pneumoniae ATCC 27736 after 16 hrs by microtiter broth dilution method; type: functional; conditions: ATCC 27736, 16 h
In this section we review reported MIC values for a set of compounds.

{"query.smiles": "CN[C@H](CC(C)C)C(=O)N[C@H]1C(=O)N[C@@H](CC(N)=O)C(=O)N[C@H]2C(=O)N[C@H]3C(=O)N[C@H](C(=O)N[C@H](C(=O)O)c4cc(O)cc(O)c4-c4cc3ccc4O)[C@H](O)c3ccc(c(Cl)c3)Oc3cc2cc(c3O[C@@H]2O[C@H](CO)[C@@H](O)[C@H](O)[C@H]2O[C@H]2C[C@](C)(N)[C@H](O)[C@H](C)O2)Oc2ccc(cc2Cl)[C@H]1O", "result": "> 157 µM"}

Form field, MIC with Klebsiella pneumoniae, item `COc1ccc(-c2csc(/N=C/c3cc(/C=C/C(=O)c4cccs4)cc(C(C)(C)C)c3O)n2)cc1OC` : > 93.9 µM

Form field, MIC with Klebsiella pneumoniae, item `COc1ccc(-c2csc(/N=C/c3cc(/C=C/C(=O)c4ccc(C)cc4)cc(C(C)(C)C)c3O)n2)cc1` : > 97.9 µM

Form field, MIC with Klebsiella pneumoniae, item `CCOC(=O)c1csc(/N=C/c2cc(/C=C/C(=O)c3ccc(C)cc3)cc(C(C)C)c2O)n1` : > 108 µM

Form field, MIC with Klebsiella pneumoniae, item `CCOC(=O)c1csc(/N=C/c2cc(/C=C/C(=O)c3cccs3)cc(C(C)(C)C)c2O)n1` : > 107 µM

Form field, MIC with Klebsiella pneumoniae, item `CCOC(=O)c1csc(/N=C/c2cc(/C=C/C(=O)c3ccc(C)cc3)cc(C(C)(C)C)c2O)n1` : > 105 µM
